- Tested on: Nucleic Acid
- test.name: Binding affinity to 5'-ATGCAT-3' of hairpin DNA (unknown origin) in cacodylic acid buffer at pH 6.5 assessed as change in melting temperature at 3 uM by thermal denaturation assay
- Type: nucleic-acid assay
observation.type: ΔTm (°C)

// solved cases for ΔTm follow
molecule_smiles=CN(C)CCCNC(=O)c1cc(NC(=O)c2cc(NC(=O)c3nc(NC=O)cn3C)cn2C)cn1C observation_type=ΔTm unit_name=°C assay_result=11
molecule_smiles=CN(C)CCCNC(=O)c1cc(NC(=O)c2cc(NC(=O)c3nc(NC=O)cn3C)cn2CCCN)cn1C observation_type=ΔTm unit_name=°C assay_result=26

A: CN(C)CCNC(=O)c1nc(NC(=O)c2cc(NC(=O)c3nc(NC=O)cn3C)cn2CCCN)cn1C
B: CN(C)CCNC(=O)c1nc(NC(=O)c2cc(NC(=O)c3nc(NC=O)cn3C)cn2C)cn1C
Dear colleague, could you let me know whether A or B has the lower recorded ΔTm? Thanks. Write the label of whichever entry you select.
B
(B: 9 °C, A: 24 °C)
